From: patent US20210230266A1

Biological target: T1, Human IL-11 (human, UniProt P20809 22-199)
T1 construct: Recombinant human IL-11 (GenScript Cat. No. Z03108-1) or IL-11 secreted by human cells; the mature form is said to have 178 residues; also called recombinant human IL-11; endogenously produced IL-11
T1 sequence: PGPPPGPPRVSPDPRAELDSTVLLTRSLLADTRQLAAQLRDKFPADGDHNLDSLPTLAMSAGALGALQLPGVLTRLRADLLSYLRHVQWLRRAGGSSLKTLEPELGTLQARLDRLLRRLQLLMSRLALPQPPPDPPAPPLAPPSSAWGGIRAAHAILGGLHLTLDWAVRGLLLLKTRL
Assay: ELISA on coated recombinant human IL-11 (100 ng/well), scFv-Fc
test readout: EC50

Input YU100-B06 (antibody) QVQLVESGGGVVQPGRSLRLSCAASGFTFSSYGMHWVRQAPGKGLEWVAVISYDGSNKYYADSVKSRFTISRDNSKNTLYLQMNSLRAEDTAVYYCAKIGATDPLDYWGQGTLVTVSSGSASAPKLEEGEFSEARVQSALTQPASVSGSPGQSITISCTGTSSDVGGYNYVSWYQQHPGKAPKLMIYDVSKRPSGVPDRFSGSKSGNTASLTISGLQAEDEADYYCNSYAGSYTWVFGGGTKLTVL , output reported EC50.
0.033 µg/mL

Hello, please tell me recorded EC50 for this one: YU112-F05 (antibody) EVQLVQSGGGVVQPGRSLRLSCAASGFTFGSYGMHWVRQAPGKGLEWVAVISYDGSNKYYADSVKGRFTISRDNSKNTLYLQMNSLRAEDTAVYYCAKIGATDPLDYWGQGTLVTVSSGSASAPKLEEGEFSEARVQSALTQPRSVSGSPGQSVTISCTGTSSDVGGYNYVSWYQQHPGKAPKLIIYDVNNRPSGVSNRFSASKSGNTASLTISGLQAEDEADYYCNSYTSGSTWVFGGGTKLTVL
0.04 µg/mL

Answer with the recorded EC50 for the binder listed here: YU100-H01 (antibody, human IgG1, V domains shown, Light chain shuffled human antibody; Only the variable domains are tied to the clone) VH: QVQLVQSGGGVVQPGRSLRLSCAASGFTFSSYAMHWVRQAPGKGLEWVAVISYDGSNKYYADSVKGRFTISRDNSKNTLYLQMNSLRAEDTAVYYCARIMGYDYGDYDVVDYWGQGTLVTVSS VL: QSALTQPRSVSGSPGQSVTISCTGTSSDVGAYNYVSWYQQHPGKAPKLMIYDVSERPSGVPDRFSGSKSGNTASLTISGLQAEDEADYYCCSYAGSYTWVFGGGTKLTVLG
0.053 µg/mL
